Experiment: NCI Yeast Anticancer Drug Screen. Data for the sgs1 mgt1 strain (AID 161);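 also: 0% = growth of cultures given vehicle only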
Conditions: S. cerevisiae sgs1 mgt1 strain, at 50.0 µM (retest, dose inferred, filed as 5.0)
About 79,000 compounds went through this panel and 15% of them were active in at least one assay; those are over-represented in the sample as a whole. Active and inactive are the calls of the source. Rule as the data show it: active = growth inhibition above about 70%; inactive = the rest.
Permitted responses: yes (active), no (inactive)

# MOLECULE, QUALITATIVE_LABEL
data = [
    ("O=C(O)CCC12CCCCC1=NC1(CCCCC1)NC2=O (stereo not given)", "no"),
    ("COc1ccc(N)c([N+](=O)[O-])c1", "no"),
    ("COc1ccc(C2=C/C(=C3\\C(=O)Oc4ccccc4C3=O)SS2)cc1", "no"),
    ("Clc1ncccc1-n1cccc1/C=N\\N=C/c1cccn1-c1cccnc1Cl", "yes"),
]

What was the test verdict on CC12CC(O)C3C(CCC4CCCCC43C)C1CC/C2=N/O (stereo not given) ?
no

* * *

Each record here notes measured growth inhibition.
Test: NCI Yeast Anticancer Drug Screen. Data for the bub3 strain (AID 167)
Conditions: S. cerevisiae bub3 mutant strain, at 5.0 µM (retest, dose inferred, filed as 0.5), hits give high values
Compounds without any hit were thinned out: in the full panel of roughly 79,000, 15% have a hit.
I only need the number, in %, no unit after it.

# COMPOUND, growth inhibition, %
measured = [
    ("Cc1cc(N)c2cc(NC(=O)Nc3ccc4nc(C)cc(N)c4c3)ccc2n1", 99),
    ("C/C(=N/NC(=S)Nc1ccc(C)cc1)c1ccccn1", -7),
]

Let us move to another entry and its growth inhibition.
Could you tell me which growth inhibition is on file for "C/C=C(\C)CC/C=C/CO[Si](C)(C)C(C)(C)C" ?
7

* * *

Assay: NCI Yeast Anticancer Drug Screen. Data for the bub3 strain (AID 167)
Details: S. cerevisiae bub3 mutant strain, at 5.0 µM (retest, dose inferred, filed as 0.5), hits give high values
Compounds without any hit were thinned out: in the full panel of roughly 79,000, 15% have a hit.
PROPERTY_LABEL: growth inhibition (%)
I only need the number, in %, no unit after it.

Sample answers from the record:
# COMPOUND, SCALE_UNIT, growth inhibition
rows = [
    ("O=C(O)CCC(=O)c1ccc2c(c1)CCCC2", "%", -16),
    ("O=C1c2ccccc2C(=O)c2ncccc21", "%", 11),
]

Let us move to another entry and its growth inhibition.
Could you tell me which growth inhibition is on file for O=C(CCCN1CCC(C(O)c2ccc(F)cc2)CC1)c1ccc(F)cc1 (stereo not drawn) ?
53

* * *

Experiment: NCI Yeast Anticancer Drug Screen. Data for the mlh1 rad18 strain (AID 175)
Conditions: S. cerevisiae mlh1 rad18 strain growth inhibition; at 5.0 µM (retest, dose inferred, filed as 0.5)
About 79,000 compounds went through this panel and 15% of them were active in at least one assay; those are over-represented in the sample as a whole. Active and inactive are the calls of the source. No stated cut-off is given here; in the data, active means growth inhibition above about 70%; inactive means the rest.
Permitted responses: active, inactive

What was the test verdict on CN(C)C1C[C@@H](O[Si](C)(C)C(C)(C)C)C=C1S(=O)(=O)c1ccccc1 (stereo partly drawn) ?
inactive

What was the test verdict on "NS(=O)(=O)c1ccc(NC(=O)Cc2nc3ccccc3s2)cc1" ?
inactive

What was the test verdict on "CCN(CC)CCCNc1cccc2ccc(OC)nc12" ?
inactive

What was the test verdict on "Cc1cc(C(=O)O)c(C)c2c1sc1ccccc12" ?
inactive

What was the test verdict on CCCCCCCCN(CCCCCCCC)C(=O)C(C)O (stereo not drawn) ?
inactive

* * *

Experiment: NCI Yeast Anticancer Drug Screen. Data for the bub3 strain (AID 167)
Conditions: S. cerevisiae bub3 mutant strain, at 50.0 µM (retest, dose inferred, filed as 5.0), hits give high values
Description: Growth inhibition of yeast strains with defined genetic alterations is measured as a screen for potential anti-cancer activity. Selected strains with alterations in DNA damage repair or cell cycle control were exposed to compounds and growth inhibition was measured relative to vehicle treated controls. The strain used in this assay is bub3
This is part of a sample that, as a whole, favours compounds with a hit. Of some 79,000 tested, about 15% had one in any assay.
Each record here notes measured growth inhibition.
I only need the number, in %, no unit after it.

Sample answers from the record:
# MOLECULE, growth inhibition [%]
data = [
    ("CN1C(=O)[C@@H]2N(N(C)C1=O)[C@@]1(Br)C(=O)N(C)C(=O)[C@@]21Br", 53),
    ("CC(=O)OC1CCC(C(C)(C)C)C(C)C1 (centres undefined)", 67),
    ("Cc1sc(N=Nc2c(O)[nH]c3ccccc23)nc1-c1ccccc1", 60),
]

Could you tell me which growth inhibition is on file for O=P(OCCCl)(OCCCl)C(Nc1cccc2ccccc12)c1ccccc1 (centres undefined) ?
87

* * *

Each record here notes measured growth inhibition.
Experiment: NCI Yeast Anticancer Drug Screen. Data for the mec2-1 strain (AID 157)
Settings: S. cerevisiae mec2-1 strain, at 50.0 µM (retest, dose inferred, filed as 5.0), hits give high values
About 79,000 compounds went through this panel and 15% of them were active in at least one assay; those are over-represented in the sample as a whole.
I only need the number, in %, no unit after it.

Sample answers from the record:
# COMPOUND, growth inhibition (%)
records = [
    ("NC(N)=NS(=O)(=O)c1ccc(N=Cc2c3ccccc3nc3cc(Cl)ccc23)cc1", -2),
    ("Cc1ccc2sc3ccc(N)cc3c(=O)c2c1", 74),
    ("O=C1CSC(Cc2nc3ccccc3[nH]2)=N1", 79),
    ("O=C(O)c1c([N+](=O)[O-])cc(C(F)(F)F)cc1[N+](=O)[O-]", 13),
    ("CCOC(=O)/C=C(\\CC(=O)OCC)C(=O)OCC", -8),
    ("COC(=O)C1C(=O)CC(c2ccccc2)C1c1ccccc1 (configuration not stated)", -3),
    ("Cc1ccc(O)c(C(C)c2ccccc2)c1 (configuration not stated)", 99),
    ("O=C(N/C(=C\\c1ccc(Oc2ccc(Cl)c(Cl)c2)cc1)c1nc2ccccc2[nH]1)c1ccccc1", 97),
    ("O=C(Nc1cc(-c2ccccc2)[nH]n1)c1ccccc1", 37),
    ("O=P(OCCCl)(OCCCl)C(Nc1cccc2ccccc12)c1ccccc1 (configuration not stated)", 72),
]

Could you tell me which growth inhibition is on file for "Clc1ccc2nc3ccccc3nc2c1" ?
67

Could you tell me which growth inhibition is on file for "CN(C)C(C)(C)CCNc1c2ccccc2nc2cccc([N+](=O)[O-])c12" ?
100

Could you tell me which growth inhibition is on file for "CC1=CC(C)(C)Nc2cc(N)ccc21" ?
-65

Could you tell me which growth inhibition is on file for "O=CC(=C\c1ccco1)/C(C=O)=C\c1ccco1" ?
44

* * *

Assay: NCI Yeast Anticancer Drug Screen. Data for the rad50 strain (AID 155);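 also: 0% = growth of vehicle-only cultures of the same strain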
Details: S. cerevisiae rad50 strain growth inhibition; at 5.0 µM (retest, dose inferred, filed as 0.5)
The panel holds about 79,000 compounds, 15% with a hit somewhere; the sample as a whole holds those more often. Active and inactive are the calls of the source. Cut-off read from the data, not from the text of the source: active = growth inhibition above about 70%; inactive = the rest.
Permitted responses: active, inactive

# COMPOUND, QUALITATIVE_LABEL
data = [
    ("CCCCC(=O)OC1=C(Br)C(=O)c2ccccc2C1=O", "inactive"),
    ("COc1ccc2c(c1)[n+]([O-])c(-c1ccc(C)cc1)c(N)[n+]2[O-]", "inactive"),
]

What was the test verdict on "N#CSC#Cc1ccc(C#CSC#N)cc1" ?
active

What was the test verdict on CC1(c2ccc(F)cc2)OC(=O)c2c1ccc1ccccc21 (stereo unspecified) ?
inactive

What was the test verdict on "Clc1ccc(/C=N/Nc2c3ccccc3nc3ccccc23)c(Cl)c1" ?
inactive

What was the test verdict on "O=C(Nc1ccc(Cl)c(Cl)c1)Nc1cc(Cl)ccc1Oc1ccc(Cl)cc1S(=O)(=O)O" ?
inactive

* * *

Assay: NCI Yeast Anticancer Drug Screen. Data for the bub3 strain (AID 167)
Conditions: S. cerevisiae bub3 mutant strain, at 50.0 µM (retest, dose inferred, filed as 5.0), hits give high values
The panel holds about 79,000 compounds, 15% with a hit somewhere; the sample as a whole holds those more often.
Each record here notes measured growth inhibition.
I only need the number, in %, no unit after it.

Sample answers from the record:
# GIVEN_SMILES, growth inhibition (%)
measured = [
    ("COc1ccc(/C=C2\\SC(=S)N(/C=C(/C#N)C(=O)c3ccc4ccccc4c3)C2=O)cc1OC", 98),
    ("CCCN(Cc1ccccc1)S(=O)(=O)c1ccc(C)cc1", 96),
    ("Clc1nc2cc3nc(Cl)c(Cl)nc3cc2nc1Cl", 30),
    ("ClC(Cl)(Cl)C1=CC2c3ccccc3C1c1ccccc12", 92),
]

Could you tell me which growth inhibition is on file for "Cc1ccc(C)c(C(=O)CCN)c1" ?
8

Could you tell me which growth inhibition is on file for "N=C(N)c1ccc(Nc2ccc(C(=N)N)cc2)cc1" ?
56

Could you tell me which growth inhibition is on file for "CCOC(=O)/C=C(\C)c1ccc([N+](=O)[O-])cc1" ?
-54

Could you tell me which growth inhibition is on file for "CS/C(=N\C(=S)N(C)C)N(c1ccccc1)c1nc(=[N+](C)C)ss1" ?
97

Could you tell me which growth inhibition is on file for "S=C(NCCc1ccccc1)N/N=C/c1ccc(Cl)cc1" ?
65

Could you tell me which growth inhibition is on file for "N#Cc1ccc(Oc2nc3ccccc3nc2-c2ccccc2)cc1" ?
86

Could you tell me which growth inhibition is on file for "O=C(O)c1c([N+](=O)[O-])cc(C(F)(F)F)cc1[N+](=O)[O-]" ?
10

Could you tell me which growth inhibition is on file for "CC(=O)Nc1ccc(/C=N\NC(=O)c2ccco2)cc1" ?
-12

Could you tell me which growth inhibition is on file for "COC1=CC(=O)[C@H]2CC(C)=CC[C@]2(C)C1=O" ?
0
